- Tested on: CYP3A
- ASSAY OVERVIEW: Drug-drug interaction with midazolam (cohort G)
- CONDITIONS: human, in vivo, 2 mg
OBSERVATION TYPE: half-life (h)
Answer format: numeric, h implied, no suffix.

State its half-life on CYP3A: "Cc1ncc2n1-c1ccc(Cl)cc1C(c1ccccc1F)=NC2"
4.36

###

- ASSAY OVERVIEW: Effect of food on pharmacokinetics (cohort C, 250 mg crossover)
- Format: in vivo, human
- CONDITIONS: human, plasma, oral, 250 mg, Cohort C/250 mg single dose, Fed; read-out: t1/2,z, GLS mean (converted)
OBSERVATION TYPE: half-life

Which half-life reading was recorded for the compound "Cn1cnc(Cn2c(=O)[nH]/c(=N\c3cc4cn(C)nc4cc3Cl)n(Cc3cc(F)c(F)cc3F)c2=O)n1" ?
40.5 h

###

- ASSAY OVERVIEW: Single ascending oral dose pharmacokinetics (part 1, plasma and urine, fasted)
- Format: in vivo, human
- CONDITIONS: human, plasma, oral, cohort/dose D/500 mg, single dose, median (min, max), read-out: Tmax
OBSERVATION TYPE: Tmax
Remember to follow the number with its unit.

Which Tmax reading was recorded for the compound Cn1cnc(Cn2c(=O)[nH]/c(=N\c3cc4cn(C)nc4cc3Cl)n(Cc3cc(F)c(F)cc3F)c2=O)n1 [Ensitrelvir, ensitrelvir fumaric acid] ?
2 h

###

- ASSAY OVERVIEW: Effect of food on pharmacokinetics (cohort C, 250 mg crossover)
- Format: in vivo, human
- CONDITIONS: human, plasma, oral, 250 mg, Cohort C/250 mg single dose, Fed; read-out: Cmax, GLS mean
OBSERVATION TYPE: Cmax (ng/mL)
Answer format: numeric, ng/mL implied, no suffix.

Which Cmax reading was recorded for the molecule Cn1cnc(Cn2c(=O)[nH]/c(=N\c3cc4cn(C)nc4cc3Cl)n(Cc3cc(F)c(F)cc3F)c2=O)n1 [Ensitrelvir, ensitrelvir fumaric acid] ?
13000

###

- ASSAY OVERVIEW: Single ascending oral dose pharmacokinetics (part 1, plasma and urine, fasted)
- Assay type: in vivo, human
- CONDITIONS: human, plasma, oral, cohort/dose C/250 mg, single dose, geometric mean (%CV)
OBSERVATION TYPE: MRT (h)
Answer format: numeric, h implied, no suffix.

Which MRT reading was recorded for the compound "Cn1cnc(Cn2c(=O)[nH]/c(=N\c3cc4cn(C)nc4cc3Cl)n(Cc3cc(F)c(F)cc3F)c2=O)n1" ?
73.4

###

- ASSAY OVERVIEW: Single ascending oral dose pharmacokinetics (part 1, plasma and urine, fasted)
- Type: in vivo, human
- CONDITIONS: human, urine and plasma, oral, cohort/dose A/20 mg, single dose, geometric mean (%CV)
OBSERVATION TYPE: CL renal (mL/min)
Answer format: numeric, mL/min implied, no suffix.

Which CL renal reading was recorded for the molecule "Cn1cnc(Cn2c(=O)[nH]/c(=N\c3cc4cn(C)nc4cc3Cl)n(Cc3cc(F)c(F)cc3F)c2=O)n1" ?
0.523

###

- System: CYP3A
- ASSAY OVERVIEW: Drug-drug interaction with midazolam (cohort G)
- CONDITIONS: human, in vivo, 2 mg
OBSERVATION TYPE: AUC(0-t) (ng·h/mL)
Answer format: numeric, ng·h/mL implied, no suffix.

Which AUC(0-t) reading was recorded for the compound Cc1ncc2n1-c1ccc(Cl)cc1C(c1ccccc1F)=NC2 [Midazolam, midazolam] ?
34.7

###

- ASSAY OVERVIEW: Single ascending oral dose pharmacokinetics (part 1, plasma and urine, fasted)
- Type: in vivo, human
- CONDITIONS: human, plasma, oral, cohort/dose B/70 mg, single dose, geometric mean (%CV)
OBSERVATION TYPE: MRT
Remember to follow the number with its unit.

Which MRT reading was recorded for the compound Cn1cnc(Cn2c(=O)[nH]/c(=N\c3cc4cn(C)nc4cc3Cl)n(Cc3cc(F)c(F)cc3F)c2=O)n1 [Ensitrelvir, ensitrelvir fumaric acid] ?
67.3 h

###

- ASSAY OVERVIEW: Single ascending oral dose pharmacokinetics (part 1, plasma and urine, fasted)
- Format: in vivo, human
- CONDITIONS: human, plasma, oral, cohort/dose E/1000 mg, single dose, geometric mean (%CV)
OBSERVATION TYPE: AUC(0-t) (µg·h/mL)
Answer format: numeric, µg·h/mL implied, no suffix.

Which AUC(0-t) reading was recorded for the compound Cn1cnc(Cn2c(=O)[nH]/c(=N\c3cc4cn(C)nc4cc3Cl)n(Cc3cc(F)c(F)cc3F)c2=O)n1 [Ensitrelvir, ensitrelvir fumaric acid] ?
3340

###

- ASSAY OVERVIEW: Single ascending oral dose pharmacokinetics (part 1, plasma and urine, fasted)
- Format: in vivo, human
- CONDITIONS: human, plasma, oral, cohort/dose J/2000 mg, single dose, geometric mean (%CV), read-out: Vz/F
OBSERVATION TYPE: Vd/F (L)
Answer format: numeric, L implied, no suffix.

Which Vd/F reading was recorded for the compound "Cn1cnc(Cn2c(=O)[nH]/c(=N\c3cc4cn(C)nc4cc3Cl)n(Cc3cc(F)c(F)cc3F)c2=O)n1" ?
19.6

###

- ASSAY OVERVIEW: Single ascending oral dose pharmacokinetics (part 1, plasma and urine, fasted)
- Type: in vivo, human
- CONDITIONS: human, plasma, oral, cohort/dose J/2000 mg, single dose, geometric mean (%CV)
OBSERVATION TYPE: AUC(0-t) (µg·h/mL)
Answer format: numeric, µg·h/mL implied, no suffix.

Which AUC(0-t) reading was recorded for the molecule Cn1cnc(Cn2c(=O)[nH]/c(=N\c3cc4cn(C)nc4cc3Cl)n(Cc3cc(F)c(F)cc3F)c2=O)n1 [Ensitrelvir, ensitrelvir fumaric acid] ?
6310

###

- ASSAY OVERVIEW: Single ascending oral dose pharmacokinetics (part 1, plasma and urine, fasted)
- Format: in vivo, human
- CONDITIONS: human, plasma, oral, cohort/dose B/70 mg, single dose, geometric mean (%CV), read-out: t1/2,z (converted)
OBSERVATION TYPE: half-life
Remember to follow the number with its unit.

Which half-life reading was recorded for the molecule "Cn1cnc(Cn2c(=O)[nH]/c(=N\c3cc4cn(C)nc4cc3Cl)n(Cc3cc(F)c(F)cc3F)c2=O)n1" ?
45.7 h

###

- ASSAY OVERVIEW: Single ascending oral dose pharmacokinetics (part 1, plasma and urine, fasted)
- Assay type: in vivo, human
- CONDITIONS: human, urine and plasma, oral, cohort/dose C/250 mg, single dose, geometric mean (%CV)
OBSERVATION TYPE: CL renal
Remember to follow the number with its unit.

Which CL renal reading was recorded for the compound "Cn1cnc(Cn2c(=O)[nH]/c(=N\c3cc4cn(C)nc4cc3Cl)n(Cc3cc(F)c(F)cc3F)c2=O)n1" ?
0.845 mL/min

###

- ASSAY OVERVIEW: Single ascending oral dose pharmacokinetics (part 1, plasma and urine, fasted)
- Assay type: in vivo, human
- CONDITIONS: human, plasma, oral, cohort/dose D/500 mg, single dose, geometric mean (%CV), read-out: t1/2,z (converted)
OBSERVATION TYPE: half-life (h)
Answer format: numeric, h implied, no suffix.

Which half-life reading was recorded for the molecule Cn1cnc(Cn2c(=O)[nH]/c(=N\c3cc4cn(C)nc4cc3Cl)n(Cc3cc(F)c(F)cc3F)c2=O)n1 [Ensitrelvir, ensitrelvir fumaric acid] ?
42.2

###

- ASSAY OVERVIEW: Single ascending oral dose pharmacokinetics (part 1, plasma and urine, fasted)
- Type: in vivo, human
- CONDITIONS: human, plasma, oral, cohort/dose C/250 mg, single dose, geometric mean (%CV), read-out: t1/2,z (converted)
OBSERVATION TYPE: half-life (h)
Answer format: numeric, h implied, no suffix.

Which half-life reading was recorded for the compound "Cn1cnc(Cn2c(=O)[nH]/c(=N\c3cc4cn(C)nc4cc3Cl)n(Cc3cc(F)c(F)cc3F)c2=O)n1" ?
43.1

###

- ASSAY OVERVIEW: Multiple-dose pharmacokinetics (part 2, cohorts F, G, H)
- Type: in vivo, human
- CONDITIONS: human, plasma, oral, G/750/250 mg (Japanese), Day 5, fasted; median (min, max)
OBSERVATION TYPE: Tmax

Which Tmax reading was recorded for the compound "Cn1cnc(Cn2c(=O)[nH]/c(=N\c3cc4cn(C)nc4cc3Cl)n(Cc3cc(F)c(F)cc3F)c2=O)n1" ?
2.5 h

###

- ASSAY OVERVIEW: Multiple-dose pharmacokinetics (part 2, cohorts F, G, H)
- Format: in vivo, human
- CONDITIONS: human, plasma, oral, G/750/250 mg (Japanese), Day 5, fasted; geometric mean (%CV)
OBSERVATION TYPE: Cmax (µg/mL)
Answer format: numeric, µg/mL implied, no suffix.

Which Cmax reading was recorded for the molecule Cn1cnc(Cn2c(=O)[nH]/c(=N\c3cc4cn(C)nc4cc3Cl)n(Cc3cc(F)c(F)cc3F)c2=O)n1 [Ensitrelvir, ensitrelvir fumaric acid] ?
66.3

###

- ASSAY OVERVIEW: Multiple-dose pharmacokinetics (part 2, cohorts F, G, H)
- Type: in vivo, human
- CONDITIONS: human, plasma, oral, 750 mg, G/750/250 mg (Japanese), Day 1, fasted; median (min, max)
OBSERVATION TYPE: Tmax
Remember to follow the number with its unit.

Which Tmax reading was recorded for the compound "Cn1cnc(Cn2c(=O)[nH]/c(=N\c3cc4cn(C)nc4cc3Cl)n(Cc3cc(F)c(F)cc3F)c2=O)n1" ?
3 h

Ref: paper PMC9578392
